// values below are reported log10 of TGI
System: MCF7 breast
Experiment: NCI tumour cell line growth inhibition, 48 h
Where a SMILES comes first, the peptide text is derived from it. The star is where a group is joined. Cbz = O=C(OCc1ccccc1)*; Bn = c1ccc(C*)cc1
assay_readout: log10 of TGI (log10 of the value in µM)

molecule: CC(=O)/C(Br)=C/c1ccc(Br)o1
assay_readout: log10 of TGI
value_reported: 1.16

molecule: COC(=O)C(Cc1ccc(O)cc1)NC(=O)C(COCc1ccccc1)NC(=O)OCc1ccccc1 (centres undefined) (Cbz-Ser(Bn)-Tyr-OMe; configuration not given here)
assay_readout: log10 of TGI
value_reported: 1.56

molecule: OC1CCCC2CCC[N-]C12.OC1CCCC2CCC[N-]C12.[O]=[V][OH] (centres undefined)
assay_readout: log10 of TGI
value_reported: 1.00

molecule: Cc1ccc(S(=O)(=O)N/N=C2\CCCCCCCCCCC2CN(C)C)cc1 (centres undefined)
assay_readout: log10 of TGI
value_reported: 1.49

molecule: COc1ccc(CNc2nc(NCc3ccc(OC)cc3)nc(NC3CCCC3)n2)cc1
assay_readout: log10 of TGI
value_reported: 0.99

molecule: COc1ccc2c(O)c(/C=C3\N=Nc4ncccc43)oc2c1C[C@@H]1CCNC[C@H]1F
assay_readout: log10 of TGI
value_reported: 0.04

molecule: O=C1OCC(c2ccc(Cl)cc2)=C1Cl
assay_readout: log10 of TGI
value_reported: 1.65

molecule: O=C1C=C(OCC=C(C(F)(F)F)C(F)(F)F)c2ccccc2C1=O
assay_readout: log10 of TGI
value_reported: 0.60

molecule: O=C(NCCOCCOCCOCCNC(=O)c1cc2c(o1)C(=O)c1ccccc1C2=O)NC12CC3CC(CC(C3)C1)C2
assay_readout: log10 of TGI
value_reported: 0.51

molecule: COc1ccc(-c2cc(-c3ccc(Cl)cc3)nc(NCCCCNc3ccnc4cc(Cl)ccc34)n2)cc1
assay_readout: log10 of TGI
value_reported: 0.57

----------
System: MALME-3M melanoma
Assay: NCI tumour cell line growth inhibition, 48 h
The entries below are paired with their reported GI50.

item_smiles: O=C(Nc1cc(Cl)ccc1O)c1cccc(Nc2ccnc(C(F)(F)F)c2)c1
GI50: 2.22 µM

item_smiles: O=C1C=C(OCC=C(C(F)(F)F)C(F)(F)F)c2ccccc2C1=O
GI50: 1.56 µM

item_smiles: CN(C)Cc1ccc(NC(=O)c2cncc(C#Cc3cnc(N)c4ncccc34)c2)cc1F
GI50: 1.61 µM

item_smiles: Cn1c(=O)c(Oc2ccc(F)cc2F)cc2cnc(N[C@@H]3CCOC3)nc21
GI50: > 25 µM

item_smiles: COc1ccc2c(O)c(/C=C3\N=Nc4ncccc43)oc2c1C[C@@H]1CCNC[C@H]1F
GI50: 1.89 µM

----------
Tested on: SF-539 CNS
Test: NCI tumour cell line growth inhibition, 48 h; in the data active = GI50 below about 0.43 µM; inactive = the rest
Possible outcomes: active, inactive

molecule: COc1ccc(-c2cc(-c3ccc(Cl)cc3)nc(NCCCCNc3ccnc4cc(Cl)ccc34)n2)cc1
class_label: inactive
--
molecule: CCN1C(=O)N(CC)C2C1NN=c1s/c(=C3\C(=O)N(C4CCCC4)c4ccccc43)c(=O)n12 (stereo not given)
class_label: inactive
--
molecule: O=C1Nc2ccccc2/C1=C\c1nc(-c2ccccc2F)n2ccccc12
class_label: inactive
--
molecule: O=C(Nc1cc(Cl)ccc1O)c1cccc(Nc2ccnc(C(F)(F)F)c2)c1
class_label: inactive
--
molecule: COc1cc(-c2nc3ccccc3o2)cc(CN2CCCCC2)c1O
class_label: inactive
--
molecule: Cn1cc(C2=C(c3cn(CCCN)c4ccccc34)C(=O)NC2=O)c2ccccc21
class_label: inactive
--
molecule: COc1ccccc1[As]=[As]c1ccccc1OC (stereo not given)
class_label: active
--
molecule: CCC(C)C1=C(O)[N+]2([O-])Oc3ccc(C4=C(O)C(=O)C(c5ccc(O)cc5)=C(O)C4=O)cc3OC2(C(C)CC)C(=O)N1O (stereo not given)
class_label: inactive
--
molecule: COc1cc2c3c(n(CCCNCCCNCCN)c(=O)c2cc1OC)-c1cc2c(cc1C3=O)OCO2
class_label: inactive
--
molecule: Cc1ccc(Cl)c(NS(=O)(=O)c2ccc(-c3cnc(C4CC4)o3)cc2)c1
class_label: active

----------
Test system: NCI/ADR-RES ovarian
Assay: NCI tumour cell line growth inhibition, 48 h
Where a SMILES comes first, the peptide text is derived from it. The star is where a group is joined. Cbz = O=C(OCc1ccccc1)*; Bn = c1ccc(C*)cc1
Quick list: log10 TGI per entry.
assay_readout: log10 TGI (log10 of the value in µM)

molecule: CC(=O)Oc1c2ccsc2c(OC(C)=O)c2ccsc12
assay_readout: log10 TGI
value_reported: 0.09

molecule: COc1cc2c(c(OC)c1OC)-c1ccc(SC)c(=O)cc1[C@@H](NC(=O)C(F)(F)F)CC2
assay_readout: log10 TGI
value_reported: 1.90

molecule: CO[C@]12S[C@@H]3CCCC[C@@]31C(C)(C)C(=O)N2c1ccccc1
assay_readout: log10 TGI
value_reported: 1.90

molecule: Nc1ncc(-c2ccc3ncnc(N4CCc5ccc(Cl)cc54)c3c2)cc1C(F)(F)F
assay_readout: log10 TGI
value_reported: 1.96

molecule: Nc1cccc(OCC2CCCN3CCCCC23)c1 (centres undefined)
assay_readout: log10 TGI
value_reported: 1.58

molecule: CCCCOc1ccc(/C=N/Nc2cc(C)nc3ccc(Br)cc23)cc1
assay_readout: log10 TGI
value_reported: 0.59

molecule: COc1ccc(S(=O)(=O)Nc2c(/C=C\c3cc(OC)c(OC)c(OC)c3)ccc(OC)c2O)cc1
assay_readout: log10 TGI
value_reported: -0.22

molecule: COc1ccc(-c2oc3cc(OC(C)=O)cc(OC(C)=O)c3c(=O)c2OC)cc1
assay_readout: log10 TGI
value_reported: 1.56

molecule: CCOC(=O)OC1C(Br)C2CCC1(C)C2(C)C (centres undefined)
assay_readout: log10 TGI
value_reported: 1.51

molecule: COc1ccc2c(c1)C(OC)C1c3c(cc4c(c3-2)OCO4)CCN1C (centres undefined)
assay_readout: log10 TGI
value_reported: 0.87

molecule: COc1ccc2c(O)c(/C=C3\N=Nc4ncccc43)oc2c1C[C@@H]1CCNC[C@H]1F
assay_readout: log10 TGI
value_reported: 0.63

molecule: C/C(=N\Nc1nc2ccccc2[nH]1)c1cnccn1
assay_readout: log10 TGI
value_reported: 1.33

molecule: COC1=C2CC(C)CC(OC)C(OC(=O)CN)[C@H](C)/C=C(\C)C(OC(N)=O)C(OC)/C=C\C=C(/C)C(=O)NC(=CC1=O)C2=O (some centres undefined)
assay_readout: log10 TGI
value_reported: 1.44

molecule: Cc1c2ccncc2c(C)c2c1sc1ccccc12
assay_readout: log10 TGI
value_reported: 1.40

molecule: COC(=O)C(Cc1ccc(O)cc1)NC(=O)C(COCc1ccccc1)NC(=O)OCc1ccccc1 (centres undefined) (Cbz-Ser(Bn)-Tyr-OMe; configuration not given here)
assay_readout: log10 TGI
value_reported: 1.59

molecule: CCS(=O)c1c2cc(OC)ccc2nc2ccc(OC)cc12 (centres undefined)
assay_readout: log10 TGI
value_reported: 1.65

molecule: COC(=O)c1c(O)ccc2c1c1c(n2Cc2ccccc2OC)C(=O)c2ccccc2C1=O
assay_readout: log10 TGI
value_reported: 1.59

molecule: Nc1nc(Cl)c2ncn(Cc3cccc(CCl)c3)c2n1
assay_readout: log10 TGI
value_reported: 1.06

molecule: O=C(Nc1cc(Cl)ccc1O)c1cccc(Nc2ccnc(C(F)(F)F)c2)c1
assay_readout: log10 TGI
value_reported: 1.15

molecule: O=C(/C=C/c1ccccn1)c1ccc(OCc2nnc(-c3ccc(Cl)cc3)o2)cc1
assay_readout: log10 TGI
value_reported: 1.62

molecule: CCOC(=O)c1c(N2CCCC2)[nH]c(=O)c(C(c2ccc(Cl)c([N+](=O)[O-])c2)c2c(O)c(C(=O)OCC)c(N3CCCC3)[nH]c2=O)c1O
assay_readout: log10 TGI
value_reported: 1.87

molecule: CN(C)CCOc1cc2c(c3ccccc13)-c1ccccc1C2O (centres undefined)
assay_readout: log10 TGI
value_reported: 1.29

----------
System: MDA-MB-231 breast
Experiment: NCI tumour cell line growth inhibition, 48 h

molecule: O=C(/C=C/c1ccccn1)c1ccc(OCc2nnc(-c3ccc(Cl)cc3)o2)cc1
assay_target: MDA-MB-231 breast
GI50: 2.27 µM
--
molecule: C=C1C(=O)O[C@H]2[C@H]1CC/C(COC(=O)/C=C\C(=O)NCc1ccc(Cn3c(=O)sn(CCI)c3=O)cc1)=C\CC[C@@]1(C)O[C@@H]21
assay_target: MDA-MB-231 breast
GI50: 2.52 µM
--
molecule: OC1CCCC2CCC[N-]C12.OC1CCCC2CCC[N-]C12.[O]=[V][OH] (stereo not given)
assay_target: MDA-MB-231 breast
GI50: 3.55 µM
--
molecule: CCCCCCCCCCNCCSS(=O)(=O)O
assay_target: MDA-MB-231 breast
GI50: 1.77 µM
--
molecule: CNC(=O)c1c(F)cccc1Nc1nc(Nc2cc3c(cc2OC)CCN3C(=O)CN(C)C)nc2[nH]ccc12
assay_target: MDA-MB-231 breast
GI50: 1.9 µM
